PROTOCOL_NOTES: Luciferase activity of purified RLuc mutants (light output integrated over 10 s, luminometer)
Type: biochemical
CONDITION_DETAILS: bisdeoxycoelenterazine; relative to native enzyme
Method: Luminometer Calibration: Light measurements were made using a Turner 20/20 and later a Turner 20/20n luminometer (Turner Designs, Sunnyvale, Calif.). […] Characterization of Renilla Luciferase Mutants: Luciferase activity was measured by adding 1 μl of sample (diluted as necessary in EB containing 1% HSA) to 100 μl room temperature 100 mM sodium phosphate buffer (pH 7), manually adding 1 μl of 0.5 μg/μl coelenterazine or analog, manually mixing, and reading for 10 s in a luminometer. […]
READOUT: Activity (relative to RLuc) bdc
In your answer, state the number alone without any accompanying words.

A55T/C124A: RLuc mutant A55T/C124A (protein) MASKVYDPEQRKRMITGPQWWARCKQMNVLDSFINYYDSEKHAENAVIFLHGNATSSYLWRHVVPHIEPVARCIIPDLIGMGKSGKSGNGSYRLLDHYKYLTAWFELLNLPKKIIFVGHDWGAALAFHYSYEHQDKIKAIVHAESVVDVIESWDEWPDIEEDIALIKSEEGEKMVLENNFFVETMLPSKIMRKLEPEEFAAYLEPFKEKGEVRRPTLSWPREIPLVKGGKPDVVQIVRNYNAYLRASDDLPKMFIESDPGFFSNAIVEGAKKFPNTEFVKVKGLHFSQEDAPDEMGKYIKSFVERVLKNEQ | 2.4

Please find the next molecule below.
Data request: Given the entry F116L/C124A: RLuc mutant F116L/C124A (protein) MASKVYDPEQRKRMITGPQWWARCKQMNVLDSFINYYDSEKHAENAVIFLHGNAASSYLWRHVVPHIEPVARCIIPDLIGMGKSGKSGNGSYRLLDHYKYLTAWFELLNLPKKIILVGHDWGAALAFHYSYEHQDKIKAIVHAESVVDVIESWDEWPDIEEDIALIKSEEGEKMVLENNFFVETMLPSKIMRKLEPEEFAAYLEPFKEKGEVRRPTLSWPREIPLVKGGKPDVVQIVRNYNAYLRASDDLPKMFIESDPGFFSNAIVEGAKKFPNTEFVKVKGLHFSQEDAPDEMGKYIKSFVERVLKNEQ , report its measured Activity (relative to RLuc) bdc.
Data returned: 1.8
